Each recorded value in this set is attributed to PubChem BioAssay (NCATS).

# System: astro (control astrocytes)
# experiment_summary: Drug repurposing screens with cells derived from glioblastoma tumor samples (AID 1345199); further: nearly all actives have a fitted effect of over 40% in size
# cond: viability, ATP luminescence, 48 h; series mostly up to 45.9 µM
# Protocol: CD133+ cells were isolated from GBM patient biopsies and cultured as neurospheres. Neurospheres from four patients were used to screen the NCATS pharmaceutical collection (NPC) library of approved drugs and bioactive compounds. […] The neurospheres were incubated with drugs for 48 hours in 1536-well format, then assayed with an ATP content cell viability assay. […]
Records with an inconclusive call do not appear. The source made the active and inactive calls. The call rests on the fitted dose curve; in most records, active means well fitted inhibition curve with a large enough effect; inconclusive means small, poorly fitted or top-dose-only effect; inactive means flat fitted curve, though single readings scatter.
Return exactly one item of active, inactive

Example entries and their recorded answers appear below.
q: Can you look up the reported call for `CC[N+](CC)(CC)CCOc1cccc(OCC[N+](CC)(CC)CC)c1OCC[N+](CC)(CC)CC` for me?
a: inactive

q: Then what about the compound `CCOC(=O)Nc1ccc(NCc2ccc(F)cc2)nc1N` ?
a: inactive

q: Then what about the compound `COc1ccc2[nH]cc(CCNC(C)=O)c2c1` ?
a: inactive

q: Then what about the compound `Clc1ccccc1C(c1ccccc1)(c1ccccc1)n1ccnc1` ?
a: inactive

q: Then what about the compound `CS(=O)(=O)Nc1ccc([N+](=O)[O-])cc1Oc1ccccc1` ?
a: inactive

q: Then what about the compound `OCCN1CCN(CCCN2c3ccccc3Sc3ccc(C(F)(F)F)cc32)CC1` ?
a: active

q: Then what about the compound `O=c1c(-c2ccc(O)cc2)coc2cc(O)cc(O)c12` ?
a: active

q: Then what about the compound `CN(C)C(=N)N=C(N)N` ?
a: inactive

Continuing:
q: Can you look up the reported call for `Nc1c2c(nc3ccccc13)CCCC2` for me?
a: inactive

q: Then what about the compound CCN1CCCC1CNC(=O)c1cc(S(=O)(=O)CC)c(N)cc1OC (stereo not given) ?
a: inactive

q: Then what about the compound `CN(C)CCC=C1c2ccccc2C=Cc2ccccc21` ?
a: inactive

q: Then what about the compound COc1ccccc1OCCNCC(O)COc1cccc2[nH]c3ccccc3c12 (stereo not given) ?
a: inactive

q: Then what about the compound `O=C1c2c(O)ccc(O)c2C(=O)c2c(NCCNCCO)ccc(NCCNCCO)c21` ?
a: active

q: Then what about the compound CC(C)NCC(O)c1ccc(O)c(O)c1 (stereo not given) ?
a: inactive

q: Then what about the compound COc1ccc(C2CNC(=O)C2)cc1OC1CCCC1 (stereo not given) ?
a: inactive

q: Then what about the compound `Fc1ccc([C@@H]2CCNC[C@H]2COc2ccc3c(c2)OCO3)cc1` ?
a: active

* * *

# experiment_summary: qHTS drug screen for cell cycle checkpoint inhibitors in PARPi-resistant BRCA-mutant ovarian cancer cell lines. (AID 1963452)
# cond: PEO1/OlaR viability, CellTiter-Glo luminescence, 96 h; measured here: PEO1 parental Z-AUC; stronger effect = lower value
Threshold check on Z-AUC: strictly below 0.3 is Y; on or above 0.3 is N.

Example entries and their recorded answers appear below.
q: Report whether reported Z-AUC is lower than 0.3 (strictly) for `Cn1cnc2c1c(=O)[nH]c(=O)n2C`
a: Y

q: Then what about the molecule CC1COc2c(N3CCN(C)CC3)c(F)cc3c(=O)c(C(=O)O)cn1c23 (stereo unspecified) ?
a: N

q: Then what about the molecule `CCC1(c2ccccc2)C(=O)NCNC1=O` ?
a: N

q: Then what about the molecule `CN1CCC(=C2c3ccccc3CC(=O)c3sccc32)CC1` ?
a: N

q: Then what about the molecule `CN(Cc1cnc2nc(N)nc(N)c2n1)c1ccc(C(=O)N[C@@H](CCC(=O)O)C(=O)O)cc1` ?
a: Y

Now turn to the next molecule.
q: Report whether reported Z-AUC is lower than 0.3 (strictly) for `O=c1[nH]cc(F)c(=O)[nH]1`
a: N
